Item-by-item account of K Bind
biological target: UniProt P18901; test: Affinity for Dopamine receptor D1 binding sites was evaluated in a test involving displacement of [3H]- fenoldopam in rat striatum; format: tissue-based
Sequence (P18901 whole entry): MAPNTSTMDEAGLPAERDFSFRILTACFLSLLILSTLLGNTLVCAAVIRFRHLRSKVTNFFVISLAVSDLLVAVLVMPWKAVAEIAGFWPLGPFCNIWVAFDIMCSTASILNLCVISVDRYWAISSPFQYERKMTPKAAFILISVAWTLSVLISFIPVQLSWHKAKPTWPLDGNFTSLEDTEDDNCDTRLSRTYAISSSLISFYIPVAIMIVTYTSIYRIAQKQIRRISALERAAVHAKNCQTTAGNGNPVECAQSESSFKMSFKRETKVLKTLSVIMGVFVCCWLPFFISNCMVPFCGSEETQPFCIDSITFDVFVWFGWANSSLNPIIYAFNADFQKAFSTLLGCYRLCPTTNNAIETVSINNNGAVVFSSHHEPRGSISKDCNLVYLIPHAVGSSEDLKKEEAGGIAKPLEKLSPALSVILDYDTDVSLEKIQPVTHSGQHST
Answer format: numeric, µM implied, no suffix.

molecule: CCCN(CCC)C1CCc2cc(Cl)c(O)cc2C1 (stereo not drawn)
unit-of-measure: µM
K Bind: 4.71

Ask | Which K Bind value belongs to CCCN(CCC)C1CCc2cc(O)c(O)c(Cl)c2C1 (stereo not drawn) ?
Reply | 0.62

* * *

target: D(2) dopamine receptor (Bos taurus) (UniProt P20288); test: Affinity for Dopamine receptor D2 was evaluated from the ability to displace [3H]spiroperidol from homogenized bovine pituitary
Sequence (P20288 whole entry): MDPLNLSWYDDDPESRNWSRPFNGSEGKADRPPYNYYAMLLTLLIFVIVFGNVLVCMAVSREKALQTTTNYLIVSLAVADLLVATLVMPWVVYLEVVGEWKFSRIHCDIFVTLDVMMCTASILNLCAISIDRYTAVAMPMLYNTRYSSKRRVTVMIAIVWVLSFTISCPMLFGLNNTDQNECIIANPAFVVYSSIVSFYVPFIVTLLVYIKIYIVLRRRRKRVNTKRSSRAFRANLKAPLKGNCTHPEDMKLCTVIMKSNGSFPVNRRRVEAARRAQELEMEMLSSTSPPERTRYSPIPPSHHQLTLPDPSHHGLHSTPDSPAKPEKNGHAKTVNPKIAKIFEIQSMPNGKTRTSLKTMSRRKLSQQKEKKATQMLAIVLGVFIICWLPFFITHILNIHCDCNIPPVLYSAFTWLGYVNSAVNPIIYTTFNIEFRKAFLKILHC
Label rule, in plain words: K Bind of 1 µM and up is condition met, under 1 µM is condition not met.

A selection of reference data follows.
compound: Oc1ccc(CCNC2CCc3cc(O)c(O)c(Cl)c3C2)cc1 (stereo not drawn)
test-target: D(2) dopamine receptor (Bos taurus) (UniProt P20288)
discrete-label: condition not met
//
compound: CCCN(CCc1ccc(O)cc1)C1CCc2cc(O)c(O)c(Cl)c2C1 (stereo not drawn)
test-target: D(2) dopamine receptor (Bos taurus) (UniProt P20288)
discrete-label: condition not met
//
compound: CN(C)C1CCc2cc(O)c(Cl)cc2C1 (stereo not drawn)
test-target: D(2) dopamine receptor (Bos taurus) (UniProt P20288)
discrete-label: condition not met

Ask | Record NC1CCc2cc(Cl)c(O)cc2C1 (stereo not drawn) ; criterion: K Bind no lower than 1 µM. Met?
Reply | condition met

Ask | Record CCCN(CCC)C1CCc2cc(F)c(O)cc2C1 (stereo not drawn) ; criterion: K Bind no lower than 1 µM. Met?
Reply | condition not met

Ask | Record CCCN(CCC)C1CCc2c(ccc(O)c2Cl)C1 (stereo not drawn) ; criterion: K Bind no lower than 1 µM. Met?
Reply | condition not met

FYI, the data here is from ChEMBL document CHEMBL1123482.
